# system: human progesterone receptor (Homo sapiens, UniProt P06401)
# Sequence (P06401 679-933 limits assumed): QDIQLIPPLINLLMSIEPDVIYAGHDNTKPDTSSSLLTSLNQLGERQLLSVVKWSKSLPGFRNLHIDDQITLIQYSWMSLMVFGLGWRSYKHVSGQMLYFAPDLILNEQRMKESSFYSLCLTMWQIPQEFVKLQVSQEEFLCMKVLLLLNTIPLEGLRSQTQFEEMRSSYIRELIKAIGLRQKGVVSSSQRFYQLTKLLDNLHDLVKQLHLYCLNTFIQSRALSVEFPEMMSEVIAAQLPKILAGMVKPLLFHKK
# protocol_details: Progesterone receptor binding assay, human PR (CEREP)
# study_conditions: 3H-R5020 as ligand, MCF7 cells as source of PR; read-out: Human PR binding (pKi) (converted)
property_name: Ki (µM)
Write the number in µM without appending the unit.

- smiles: "CC(=O)[C@H]1CC[C@H]2[C@@H]3C=CC4=CC(=O)CC[C@@]4(C)[C@@H]3[C@@H](OC(=O)Nc3cnc4ccccc4c3)C[C@]12C"
  measurement_unit: "µM"
  Ki: 0.398

Now, please, on to the next compound.
Input: GET /values?readout=Ki&system=human progesterone receptor (Homo sapiens, UniProt P06401)&item= CC(=O)[C@H]1CC[C@H]2[C@@H]3C=CC4=CC(=O)CC[C@@]4(C)[C@@H]3[C@@H](OC(=O)Nc3ccc4c(c3)N(C)C(=O)CO4)C[C@]12C
Output: 0.316

Values compiled from patent US20080249075A1.
